assayed_system: UniProt P32249
Sequence (P32249 whole entry): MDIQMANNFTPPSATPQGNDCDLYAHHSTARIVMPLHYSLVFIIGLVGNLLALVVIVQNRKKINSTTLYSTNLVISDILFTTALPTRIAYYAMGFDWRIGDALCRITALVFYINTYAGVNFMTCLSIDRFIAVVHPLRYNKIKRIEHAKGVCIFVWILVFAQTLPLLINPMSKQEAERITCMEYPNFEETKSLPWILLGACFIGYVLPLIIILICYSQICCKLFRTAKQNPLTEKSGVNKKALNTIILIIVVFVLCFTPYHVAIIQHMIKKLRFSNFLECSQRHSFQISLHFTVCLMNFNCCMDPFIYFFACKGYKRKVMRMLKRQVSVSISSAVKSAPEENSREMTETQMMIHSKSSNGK
run_description: cAMP assay, hEBI2 CHO-AeqGα16 cells
Format: cell-based
Design: expressed in transfected cells; host or cells: CHO-K1 expressing apoaequorin (CHO-Aeq) with Gqi5; line E2
measurement_context: forskolin 30 μM; read-out: EC50, cAMP assay
property: pEC50
To interpret pEC50, take it as minus log10 of a concentration measured in moles per litre.

Give the measured pEC50 of C[C@H](CCCC(C)(C)O)[C@H]1CC[C@H]2[C@@H]3[C@@H](O)C=C4C[C@@H](O)CC[C@]4(C)[C@H]3CC[C@]12C [7b,25DHC, cholest-5-ene-3b,7b,25-triol] .
4.97
